Let's look at some compounds and their measured growth.
# Test system: PC-3 prostate
# protocol: NCI-60 one-dose screen, 48 h (100 = growth as untreated, 0 = no growth, -100 = all killed)
# assay_setup: 10 µM
About 83,000 compounds went through this panel and 20% of them were active in at least one assay; those are over-represented in the sample as a whole.
The response must be a number in % with no trailing unit.

                    compound    test_target  reported_endpoint  measured
0          Oc1ccccc1-c1nnco1  PC-3 prostate             growth      91.8
1  CC(=O)Oc1ccc(Br)cc1C(=O)O  PC-3 prostate             growth      92.2

Query: Provide growth value for the following compound: Oc1ccc2c(c1)OCC1(O)Cc3cc(O)c(O)cc3C21 (configuration not stated)
Response: 69.5

Query: Provide growth value for the following compound: OCC(O)C(O)C(O)C(O)/C=N/O (configuration not stated)
Response: 73.2

Query: Provide growth value for the following compound: c1ncc2[nH]cnc2n1
Response: 86.3

Query: Provide growth value for the following compound: COc1cc(C2c3cc4c(cc3C3OC(=O)C2C3CO)OCO4)cc(OC)c1OC (configuration not stated)
Response: 19.2

Query: Provide growth value for the following compound: O=C(O)c1cccc([N+](=O)[O-])c1O
Response: 107
